Reported Relative potency values are given for each entry in this list.
target: Gonadotropin-releasing hormone receptor (Rattus norvegicus); assay: Antagonist potency at GnRH receptor relative to a standard ([Ac-delta3Pro, DFpa2, DTrp3,6]GnRH).
Write the value as a bare number.

Some compounds with known Relative potency results, for comparison:
INSERT INTO measurements (structure_as_smiles, obs_value) VALUES
  ('CCCC/N=C(\NC#N)NCCC[C@@H](NC(=O)[C@H](Cc1c[nH]cn1)NC(=O)[C@@H]1CCC(=O)N1)C(=O)N[C@@H](CO)C(=O)N[C@@H](Cc1ccc(O)cc1)C(=O)N[C@H](Cc1cccnc1)C(=O)N[C@@H](CC(C)C)C(=O)N[C@@H](CCCCNC(C)C)C(=O)N1CCC[C@H]1C(=O)N[C@H](C)C(N)=O', 1.6),
  ('CCCC/N=C(\NC#N)NCCCC[C@H](NC(=O)[C@H](CC(C)C)NC(=O)[C@@H](CCCN=C(N)N)NC(=O)[C@H](Cc1ccc(O)cc1)NC(=O)[C@H](CO)NC(=O)[C@@H](Cc1cccnc1)NC(=O)[C@H](Cc1c[nH]cn1)NC(=O)[C@@H]1CCC(=O)N1)C(=O)N1CCC[C@H]1C(=O)N[C@H](C)C(N)=O', 1.2);

Short answer for "CC(C)C[C@H](NC(=O)[C@@H](CCC/N=C(\NC#N)NCc1ccccn1)NC(=O)[C@H](CCC/N=C(\NC#N)NCc1ccccn1)NC(=O)[C@H](CO)NC(=O)[C@H](Cc1c[nH]c2ccccc12)NC(=O)[C@H](Cc1c[nH]cn1)NC(=O)[C@@H]1CCC(=O)N1)C(=O)N[C@@H](CCCCNC(C)C)C(=O)N1CCC[C@H]1C(=O)N[C@H](C)C(N)=O" : Relative potency was 0.9

---

target: Gonadotropin-releasing hormone receptor (Rattus norvegicus); test: Antagonist potency at GnRH receptor relative to a standard ([Ac-delta3Pro, DFpa2, DTrp3,6]GnRH).
Tag: Yes if measured Relative potency is not below 0.3, No if it is.

Illustrative cases are given below, each with its answer.
INSERT INTO measurements (structure_as_smiles, qualitative_label) VALUES
  ('CC(C)C[C@H](NC(=O)[C@@H](CCCCNc1n[nH]c(N)n1)NC(=O)[C@H](Cc1ccc(O)cc1)NC(=O)[C@H](CO)NC(=O)[C@H](CCCCNc1n[nH]c(N)n1)NC(=O)[C@H](Cc1c[nH]cn1)NC(=O)[C@@H]1CCC(=O)N1)C(=O)N[C@@H](CCCCNC(C)C)C(=O)N1CCC[C@H]1C(=O)N[C@H](C)C(N)=O', 'Yes'),
  ('CC(C)C[C@H](NC(=O)[C@@H](Cc1ccc(Nc2n[nH]c(N)n2)cc1)NC(=O)[C@H](Cc1ccc(Nc2n[nH]c(N)n2)cc1)NC(=O)[C@H](CO)NC(=O)[C@H](Cc1c[nH]c2ccccc12)NC(=O)[C@H](Cc1c[nH]cn1)NC(=O)[C@@H]1CCC(=O)N1)C(=O)N[C@@H](CCCCNC(C)C)C(=O)N1CCC[C@H]1C(=O)N[C@H](C)C(N)=O', 'Yes'),
  ('CCCC/N=C(\NC#N)NCCC[C@H](NC(=O)[C@H](CO)NC(=O)[C@H](Cc1c[nH]c2ccccc12)NC(=O)[C@H](Cc1c[nH]cn1)NC(=O)[C@@H]1CCC(=O)N1)C(=O)N[C@H](CCCN/C(=N/CCCC)NC#N)C(=O)N[C@@H](CC(C)C)C(=O)N[C@@H](CCCCNC(C)C)C(=O)N1CCC[C@H]1C(=O)N[C@H](C)C(N)=O', 'Yes'),
  ('CCCC/N=C(\NC#N)NCCCC[C@H](NC(=O)[C@H](Cc1c[nH]cn1)NC(=O)[C@@H]1CCC(=O)N1)C(=O)N[C@@H](CO)C(=O)N[C@@H](Cc1ccc(O)cc1)C(=O)N[C@H](CCCCN/C(=N/CCCC)NC#N)C(=O)N[C@@H](CC(C)C)C(=O)N[C@@H](CCCCNC(C)C)C(=O)N1CCC[C@H]1C(=O)N[C@H](C)C(N)=O', 'Yes'),
  ('CCCCCC/N=C(\NC#N)NCCCC[C@H](NC(=O)[C@H](CO)NC(=O)[C@H](Cc1c[nH]c2ccccc12)NC(=O)[C@H](Cc1c[nH]cn1)NC(=O)[C@@H]1CCC(=O)N1)C(=O)N[C@H](CCCCN/C(=N/CCCCCC)NC#N)C(=O)N[C@@H](CC(C)C)C(=O)N[C@@H](CCCCNC(C)C)C(=O)N1CCC[C@H]1C(=O)N[C@H](C)C(N)=O', 'No');

In: Kindly determine if Relative potency recorded for "CC(C)C[C@H](NC(=O)[C@@H](CCCNc1n[nH]c(N)n1)NC(=O)[C@H](CCCNc1n[nH]c(N)n1)NC(=O)[C@H](CO)NC(=O)[C@H](Cc1c[nH]c2ccccc12)NC(=O)[C@H](Cc1c[nH]cn1)NC(=O)[C@@H]1CCC(=O)N1)C(=O)N[C@@H](CCCCNC(C)C)C(=O)N1CCC[C@H]1C(=O)N[C@H](C)C(N)=O" is above or exactly 0.3.
Out: No
